# tested_on: Vhr1 (UniProt P40522)
# Sequence: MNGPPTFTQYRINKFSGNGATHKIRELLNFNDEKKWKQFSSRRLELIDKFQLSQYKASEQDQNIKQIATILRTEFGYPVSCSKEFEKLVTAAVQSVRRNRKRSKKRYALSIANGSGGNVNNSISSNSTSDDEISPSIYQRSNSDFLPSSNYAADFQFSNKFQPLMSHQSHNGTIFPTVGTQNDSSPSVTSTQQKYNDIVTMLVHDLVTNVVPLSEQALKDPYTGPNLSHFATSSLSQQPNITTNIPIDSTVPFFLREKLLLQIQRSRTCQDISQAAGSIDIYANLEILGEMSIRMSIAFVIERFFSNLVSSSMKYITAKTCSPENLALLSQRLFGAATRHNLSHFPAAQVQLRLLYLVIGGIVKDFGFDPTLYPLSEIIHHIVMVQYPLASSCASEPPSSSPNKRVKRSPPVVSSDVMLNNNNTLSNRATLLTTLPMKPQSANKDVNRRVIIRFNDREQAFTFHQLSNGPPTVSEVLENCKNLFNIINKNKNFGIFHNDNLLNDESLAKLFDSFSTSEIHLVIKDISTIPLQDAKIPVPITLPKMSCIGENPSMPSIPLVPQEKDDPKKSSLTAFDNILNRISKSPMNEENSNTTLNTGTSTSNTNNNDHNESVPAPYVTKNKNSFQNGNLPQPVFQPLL
# measurement_notes: PBM E-score (8-mer binding enrichment) (E-score (-0.5 to 0.5)); higher = stronger / more preferred TF binding
# condition_details: protein concentration: 200 nM; construct: GST-full length
The full ranking holds about 33,000 sequences; the median of “E-score (-0.5 to 0.5)” is about -0.012, and the highest 2% start at about 0.27. The sample holds the highest values, similar sequences and a random draw of the others, so the mix is not that of the screen.
Give PBM E-score for every item shown.
Form: value (number only, do not type unit).

## Task Form field - read-out: PBM E-score; system: Vhr1 (UniProt P40522); submitted item: `ACCATGGG`
## Result 0.108

## Task Can you handle `ATCATGGA` next?
## Result 0.22

## Task Can you handle `CGCGACGC` next?
## Result -0.00297

## Task Can you handle `ATGTGTCG` next?
## Result 0.29

## Task Can you handle `CCCCCAGC` next?
## Result -0.15

## Task Can you handle `CCCATGGA` next?
## Result 0.0783

## Task Can you handle `GAGGGCAC` next?
## Result -0.205

## Task Can you handle `ATATCTTC` next?
## Result 0.11

## Task Can you handle `AGTGATTC` next?
## Result 0.285

## Task Can you handle `ATCATGCG` next?
## Result 0.283

## Task Can you handle `ATGTGTTA` next?
## Result 0.195

## Task Can you handle `CACGCGTC` next?
## Result 0.275

## Task Can you handle `AACAGCAT` next?
## Result 0.0405

## Task Can you handle `AACGCGTC` next?
## Result -0.137

## Task Can you handle `CGCGAATC` next?
## Result 0.193

## Task Can you handle `ATGTGTCC` next?
## Result 0.157

## Task Can you handle `CTGTGTAA` next?
## Result 0.134

## Task Can you handle `CACGCGTA` next?
## Result -0.0315

## Task Can you handle `AGCGATTC` next?
## Result 0.168

## Task Can you handle `GCCCAGAC` next?
## Result -0.15

## Task Can you handle `ATACTACG` next?
## Result -0.0642

## Task Can you handle `CTGTGTGA` next?
## Result 0.306
